Assayed System: Voltage-gated inwardly rectifying potassium channel KCNH2 (Homo sapiens, UniProt Q12809)
Sequence (Q12809 whole entry): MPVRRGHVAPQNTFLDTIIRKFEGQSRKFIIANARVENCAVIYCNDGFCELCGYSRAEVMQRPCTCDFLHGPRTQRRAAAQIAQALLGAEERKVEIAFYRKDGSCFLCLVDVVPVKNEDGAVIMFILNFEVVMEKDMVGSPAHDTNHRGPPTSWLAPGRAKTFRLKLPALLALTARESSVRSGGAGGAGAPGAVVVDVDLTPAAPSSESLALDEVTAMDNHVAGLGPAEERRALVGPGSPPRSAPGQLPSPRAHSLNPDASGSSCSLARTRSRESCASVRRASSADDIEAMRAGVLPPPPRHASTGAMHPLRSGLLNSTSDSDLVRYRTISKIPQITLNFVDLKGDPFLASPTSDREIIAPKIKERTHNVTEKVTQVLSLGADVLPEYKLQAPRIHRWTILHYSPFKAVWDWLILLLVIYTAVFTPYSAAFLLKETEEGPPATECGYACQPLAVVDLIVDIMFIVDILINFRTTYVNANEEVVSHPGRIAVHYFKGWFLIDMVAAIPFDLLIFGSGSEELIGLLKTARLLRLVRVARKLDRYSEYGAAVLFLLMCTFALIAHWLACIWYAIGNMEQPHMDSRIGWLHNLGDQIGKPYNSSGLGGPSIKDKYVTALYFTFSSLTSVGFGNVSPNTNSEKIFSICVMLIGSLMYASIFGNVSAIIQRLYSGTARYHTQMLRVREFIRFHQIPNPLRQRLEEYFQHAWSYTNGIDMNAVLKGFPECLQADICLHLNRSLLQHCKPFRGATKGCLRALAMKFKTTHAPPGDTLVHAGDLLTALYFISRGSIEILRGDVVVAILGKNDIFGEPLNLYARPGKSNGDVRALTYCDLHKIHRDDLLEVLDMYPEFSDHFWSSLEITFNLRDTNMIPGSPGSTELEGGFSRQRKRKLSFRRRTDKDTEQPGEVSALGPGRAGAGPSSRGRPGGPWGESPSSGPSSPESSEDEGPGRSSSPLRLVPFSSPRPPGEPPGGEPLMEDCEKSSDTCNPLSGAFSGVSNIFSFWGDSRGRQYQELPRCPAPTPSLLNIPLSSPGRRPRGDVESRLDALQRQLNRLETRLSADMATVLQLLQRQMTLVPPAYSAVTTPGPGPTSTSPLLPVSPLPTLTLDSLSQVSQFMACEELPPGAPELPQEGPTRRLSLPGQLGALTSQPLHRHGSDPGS
Assay Metric: Ki (nM)

1. O=C(NC1CCc2ccc(CCN3CCN(c4nsc5ccccc45)CC3)cc21)C1CC1 (centres undefined) ... 35
2. CCCC(=O)NC1CCc2cc(CCN3CCN(c4nsc5ccccc45)CC3)ccc21 (centres undefined) ... 269
3. CC(C)C(=O)NC1CCc2cc(CCN3CCN(c4nsc5ccccc45)CC3)ccc21 (centres undefined) ... 219
4. O=C(NC1CCc2ccc(CCN3CCN(c4nsc5ccccc45)CC3)cc21)c1ccc(Cl)cc1 (centres undefined) ... 166
5. Cc1ccc(C(=O)NC2CCc3ccc(CCN4CCN(c5nsc6ccccc56)CC4)cc32)cc1 (centres undefined) ... 194
6. O=C(NC1CCc2ccc(CCN3CCN(c4nsc5ccccc45)CC3)cc21)c1ccc(F)cc1 (centres undefined) ... 78
7. O=C(NC1CCc2cc(CCN3CCN(c4nsc5ccccc45)CC3)ccc21)C1CC1 (centres undefined) ... 137
8. O=C(NC1CCc2ccc(CCN3CCN(c4nsc5ccccc45)CC3)cc21)c1cccnc1 (centres undefined) ... 358
9. CC(=O)NC1CCc2ccc(CCN3CCN(c4nsc5ccccc45)CC3)cc21 (centres undefined) ... 885
